Form field: viability, T/C (one value per entry).
- System: COR L88 complex tumor spheroid viability
- protocol.description: Anticancer human tumor COR L88 cell line growth inhibition;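 also: compound exposure lasted 7 days before viability readout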;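 as to viability, T/C: percent of DMSO vehicle-treated spheroids = 100%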
- test.parameters: second compound 10 µM; first compound 0.949 µM; stronger effect = lower value
Form entry: value (%) — number only.

// below: answered compounds
compound: Cn1ncnc1[C@H]1c2n[nH]c(=O)c3cc(F)cc(c23)N[C@@H]1c1ccc(F)cc1 + Cn1nnc2c(C(N)=O)ncn2c1=O
unit.spec: %
endpoint.result: 40.8
--
compound: Cc1sc2c(c1C)C(c1ccc(Cl)cc1)=NC(CC(=O)Nc1ccc(O)cc1)c1nnc(C)n1-2 (centres undefined) + Cn1nnc2c(C(N)=O)ncn2c1=O
unit.spec: %
endpoint.result: 41.2
--
compound: CNCc1ccc(-c2cc(-c3nc(-c4ccc(S(=O)(=O)C(C)C)cc4)cnc3N)on2)cc1 + Cn1nnc2c(C(N)=O)ncn2c1=O
unit.spec: %
endpoint.result: 25.9

Entry O=C(c1cc(Cc2n[nH]c(=O)c3ccccc23)ccc1F)N1CCN(C(=O)C2CC2)CC1 + Cn1nnc2c(C(N)=O)ncn2c1=O has what viability, T/C?
75.5

====

- System: COR L88 complex tumor spheroid viability
- protocol.description: Anticancer human tumor COR L88 cell line growth inhibition; active = viability on the fitted dose curve at most 10% of control; inactive = the rest;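 also: compound exposure lasted 7 days before viability readout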
- test.parameters: second compound 100 µM; first compound 3 µM
Response enum: active, inactive

Example results:
compound: Cc1sc2c(c1C)C(c1ccc(Cl)cc1)=NC(CC(=O)Nc1ccc(O)cc1)c1nnc(C)n1-2 (centres undefined) + Cn1nnc2c(C(N)=O)ncn2c1=O
assigned.label: inactive

compound: CNCc1ccc(-c2cc(-c3nc(-c4ccc(S(=O)(=O)C(C)C)cc4)cnc3N)on2)cc1 + Cn1nnc2c(C(N)=O)ncn2c1=O
assigned.label: active

Record request — test call for Cn1ncnc1[C@H]1c2n[nH]c(=O)c3cc(F)cc(c23)N[C@@H]1c1ccc(F)cc1 + Cn1nnc2c(C(N)=O)ncn2c1=O
inactive

Record request — test call for O=C(c1cc(Cc2n[nH]c(=O)c3ccccc23)ccc1F)N1CCN(C(=O)C2CC2)CC1 + Cn1nnc2c(C(N)=O)ncn2c1=O
inactive

====

Form field: viability, T/C (one value per entry).
- Test system: COR L88 complex tumor spheroid viability
- protocol.description: Anticancer human tumor COR L88 cell line growth inhibition;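 also: compound exposure lasted 7 days before viability readout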;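 as to viability, T/C: percent of DMSO vehicle-treated spheroids = 100%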
- test.parameters: second compound 3.16 µM; first compound 0.1 µM; stronger effect = lower value
Form entry: value (%) — number only.

// below: answered molecules
molecule: CC1COCCN1c1cc(-c2ccnn2C)c2ccnc(-c3ccn[nH]3)c2n1 (stereo not drawn) + Cn1nnc2c(C(N)=O)ncn2c1=O
target.or.test.system: COR L88 complex tumor spheroid viability
viability, T/C [%]: 47.8
--
molecule: COc1ccc([C@@H](O)c2cc(-c3ncnc4cc(N5CCOCC5)ccc34)c(F)cc2Cl)nn1 + Cn1nnc2c(C(N)=O)ncn2c1=O
target.or.test.system: COR L88 complex tumor spheroid viability
viability, T/C [%]: 104

Now look at this one.
Under COR L88 complex tumor spheroid viability: viability, T/C value of COc1cc(C)[nH]c(=O)c1CN1CCc2c(Cl)cc(C(OC)C3COC3)c(Cl)c2C1=O (stereo not drawn) + Cn1nnc2c(C(N)=O)ncn2c1=O ?
74.8

====

- System: COR L88 complex tumor spheroid viability
- protocol.description: Anticancer human tumor COR L88 cell line growth inhibition;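 also: compound exposure lasted 7 days before viability readout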
- test.parameters: curve of first compound; second compound 10 µM
pIC50: −log10 of the molar value.
Form field: pIC50 (one value per entry).

// below: answered molecules
molecule: CNCc1ccc(-c2cc(-c3nc(-c4ccc(S(=O)(=O)C(C)C)cc4)cnc3N)on2)cc1 + Cn1nnc2c(C(N)=O)ncn2c1=O
pIC50: 6.33

molecule: CC1COCCN1c1cc(-c2ccnn2C)c2ccnc(-c3ccn[nH]3)c2n1 (centres undefined) + Cn1nnc2c(C(N)=O)ncn2c1=O
pIC50: > 7.50

molecule: [2H]c1nc(C)nc([2H])c1-c1cc(NC[C@@H](C)c2cccc3c(C(=O)NC)ccnc23)ncn1 + Cn1nnc2c(C(N)=O)ncn2c1=O
pIC50: < 5.00

Now look at this one.
Entry CC(C)n1c(=O)n(C)c2cnc3cc(F)c(-c4ccc(OCCCN5CCCCC5)nc4)cc3c21 + Cn1nnc2c(C(N)=O)ncn2c1=O has what pIC50?
< 5.00

====

- System: COR L88 complex tumor spheroid viability
- protocol.description: Anticancer human tumor COR L88 cell line growth inhibition;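 also: compound exposure lasted 7 days before viability readout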;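 as to viability, T/C: percent of DMSO vehicle-treated spheroids = 100%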
- test.parameters: second compound 3.16 µM; first compound 0.1 µM; stronger effect = lower value
Form field: viability, T/C (one value per entry).
Form entry: value (%) — number only.

// below: answered compounds
compound: Cc1cc(C)c(CNC(=O)c2cc(-c3ccc(CN4CCOCC4)cc3)cc3c2cnn3C2CCCC2)c(=O)[nH]1 + Cn1nnc2c(C(N)=O)ncn2c1=O
viability, T/C (%): 99.5
//
compound: CC(C)n1c(=O)n(C)c2cnc3cc(F)c(-c4ccc(OCCCN5CCCCC5)nc4)cc3c21 + Cn1nnc2c(C(N)=O)ncn2c1=O
viability, T/C (%): 105

Now look at this one.
Entry [2H]c1nc(C)nc([2H])c1-c1cc(NC[C@@H](C)c2cccc3c(C(=O)NC)ccnc23)ncn1 + Cn1nnc2c(C(N)=O)ncn2c1=O has what viability, T/C?
95.3

====

- System: COR L88 complex tumor spheroid viability
- protocol.description: Anticancer human tumor COR L88 cell line growth inhibition;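 also: compound exposure lasted 7 days before viability readout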;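 as to viability, T/C: percent of DMSO vehicle-treated spheroids = 100%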
- test.parameters: second compound 0.000949 µM; first compound 0.1 µM; stronger effect = lower value
# if measured viability, T/C < 50%: T  # else: F

Example results:
molecule: COc1ccc([C@@H](O)c2cc(-c3ncnc4cc(N5CCOCC5)ccc34)c(F)cc2Cl)nn1 + COc1cc2c(cc1O)CCNC21CSC2c3c(OC(C)=O)c(C)c4c(c3C(COC1=O)N1C(O)C3Cc5cc(C)c(OC)c(O)c5C(C21)N3C)OCO4
assigned.label: F
//
molecule: [2H]c1nc(C)nc([2H])c1-c1cc(NC[C@@H](C)c2cccc3c(C(=O)NC)ccnc23)ncn1 + COc1cc2c(cc1O)CCNC21CSC2c3c(OC(C)=O)c(C)c4c(c3C(COC1=O)N1C(O)C3Cc5cc(C)c(OC)c(O)c5C(C21)N3C)OCO4
assigned.label: F
//
molecule: CC1COCCN1c1cc(-c2ccnn2C)c2ccnc(-c3ccn[nH]3)c2n1 (stereo unspecified) + COc1cc2c(cc1O)CCNC21CSC2c3c(OC(C)=O)c(C)c4c(c3C(COC1=O)N1C(O)C3Cc5cc(C)c(OC)c(O)c5C(C21)N3C)OCO4
assigned.label: T
//
molecule: COc1cc(C)[nH]c(=O)c1CN1CCc2c(Cl)cc(C(OC)C3COC3)c(Cl)c2C1=O (stereo unspecified) + COc1cc2c(cc1O)CCNC21CSC2c3c(OC(C)=O)c(C)c4c(c3C(COC1=O)N1C(O)C3Cc5cc(C)c(OC)c(O)c5C(C21)N3C)OCO4
assigned.label: T
//
molecule: Cc1cc(C)c(CNC(=O)c2cc(-c3ccc(CN4CCOCC4)cc3)cc3c2cnn3C2CCCC2)c(=O)[nH]1 + COc1cc2c(cc1O)CCNC21CSC2c3c(OC(C)=O)c(C)c4c(c3C(COC1=O)N1C(O)C3Cc5cc(C)c(OC)c(O)c5C(C21)N3C)OCO4
assigned.label: T

Lab note: viability, T/C threshold 50%. Does this molecule come in strictly under it? CC(C)n1c(=O)n(C)c2cnc3cc(F)c(-c4ccc(OCCCN5CCCCC5)nc4)cc3c21 + COc1cc2c(cc1O)CCNC21CSC2c3c(OC(C)=O)c(C)c4c(c3C(COC1=O)N1C(O)C3Cc5cc(C)c(OC)c(O)c5C(C21)N3C)OCO4
F

====

- System: COR L88 complex tumor spheroid viability
- protocol.description: Anticancer human tumor COR L88 cell line growth inhibition;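 also: compound exposure lasted 7 days before viability readout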;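 as to viability, T/C: percent of DMSO vehicle-treated spheroids = 100%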
- test.parameters: second compound 31.6 µM; first compound 3.16 µM; stronger effect = lower value
# if measured viability, T/C < 60%: YES  # else: NO

compound: Cc1cc(C)c(CNC(=O)c2cc(-c3ccc(CN4CCOCC4)cc3)cc3c2cnn3C2CCCC2)c(=O)[nH]1 + Cn1nnc2c(C(N)=O)ncn2c1=O
assigned.label: YES
//
compound: CC1COCCN1c1cc(-c2ccnn2C)c2ccnc(-c3ccn[nH]3)c2n1 (stereo unspecified) + Cn1nnc2c(C(N)=O)ncn2c1=O
assigned.label: YES
//
compound: CC(C)n1c(=O)n(C)c2cnc3cc(F)c(-c4ccc(OCCCN5CCCCC5)nc4)cc3c21 + Cn1nnc2c(C(N)=O)ncn2c1=O
assigned.label: NO
//
compound: COc1cc(C)[nH]c(=O)c1CN1CCc2c(Cl)cc(C(OC)C3COC3)c(Cl)c2C1=O (stereo unspecified) + Cn1nnc2c(C(N)=O)ncn2c1=O
assigned.label: YES
//
compound: [2H]c1nc(C)nc([2H])c1-c1cc(NC[C@@H](C)c2cccc3c(C(=O)NC)ccnc23)ncn1 + Cn1nnc2c(C(N)=O)ncn2c1=O
assigned.label: NO

Note: attention shifts to another entry.
Lab note: viability, T/C threshold 60%. Does this compound come in strictly under it? COc1ccc([C@@H](O)c2cc(-c3ncnc4cc(N5CCOCC5)ccc34)c(F)cc2Cl)nn1 + Cn1nnc2c(C(N)=O)ncn2c1=O
NO
